# test_details: in vitro; also: reference of the scale not given here
# study_conditions: human, hepg2-a16-cd81egfp cells, % viability
// classify: if (viability at 3 µM < 90%) T else F

>>> group_label("COc1ccc2nc(C)cc(NCc3cccc(C(F)(F)F)c3)c2c1")
"F"
>>> group_label("Cc1nn2c(c1-c1ccccc1-c1ccccc1)N(CC1CC1)CCC2")
"T"
>>> group_label("COc1cc(NS(C)(=O)=O)ccc1Nc1c2ccccc2nc2ccccc12")
"T"
>>> group_label("Clc1ccc(CCC(Cn2ccnc2)Sc2c(Cl)cccc2Cl)cc1 (stereo not drawn)")
"F"
>>> group_label("CC[C@]1(c2ccccc2OC)ON(c2ccccc2C(F)(F)F)C1=O")
"F"
>>> group_label("CCOc1ccccc1NC(C)C(=O)Nc1cc(C(F)(F)F)ccc1N1CCOCC1 (stereo not drawn)")
"F"
>>> group_label("CCOC(=O)c1nnn(-c2nonc2N)c1-c1ccc(Br)cc1")
"F"
>>> group_label("O=C1c2ccccc2CCc2ccc(B(O)O)cc21")
"T"
>>> group_label("c1ccc(Nc2cc3c(cn2)CN(Cc2ccc4[nH]ccc4c2)CCN3)cc1")
"T"
>>> group_label("O=C(/C(=C/c1ccc(Cl)cc1)c1nc2ccccc2[nH]1)c1cccs1")
"T"
>>> group_label("Clc1ccc2c(N/N=C/c3cccc(Br)c3)ccnc2c1")
"T"
>>> group_label("CCc1c(C)c(C#N)c2nc3ccccc3n2c1NCC1CCCO1 (stereo not drawn)")
"F"
>>> group_label("Cc1ccc(NC2=C(N3CCCCC3)C(=O)c3ccccc3C2=O)cc1")
"T"
>>> group_label("CN([C@@H](Cc1ccc(OS(=O)(=O)c2cccc3cnccc23)cc1)C(=O)N1CCN(c2ccccc2)CC1)S(=O)(=O)c1cccc2cnccc12")
"F"
